Here, compounds appear alongside pIC50 reported for Aurora kinase B (Homo sapiens) in the literature.
pIC50: −log10 of the molar value.

>  <Compound>
O=C(c1cccc(Cl)c1F)N1C[C@@H]2C[C@H]1CN2Cc1cccc(Nc2cc[nH]n2)n1

>  <Value Relation Sign>
=

>  <pIC50>
5.92

$$$$
>  <Compound>
O=C(Nc1ccc2[nH]nc(-c3ccc(N4CCC(CO)CC4)cc3)c2c1)C(c1ccsc1)N1CCCC1 (stereo not shown)

>  <Value Relation Sign>
≥

>  <pIC50>
5.30

$$$$
>  <Compound>
Cc1noc(-c2cc(CN3CCN(C(=O)c4cccc(Cl)c4F)CC3)nc(Nc3nccs3)c2)n1

>  <Value Relation Sign>
=

>  <pIC50>
6.12

$$$$
>  <Compound>
COC1CCN(c2ccc(-c3n[nH]c4ccc(NC(=O)C(c5ccsc5)N5CCCC5)cc34)cc2)CC1 (stereo not shown)

>  <Value Relation Sign>
≥

>  <pIC50>
5.30

$$$$
>  <Compound>
c1ccc2c(-c3ccnc(Nc4ccc(N5CCOCC5)cc4)n3)c[nH]c2c1

>  <Value Relation Sign>
=

>  <pIC50>
6.59

$$$$
>  <Compound>
NC(=O)c1cccc2c(N[C@H](CN3CCC3)c3cccc(Br)c3)ncnc12

>  <Value Relation Sign>
=

>  <pIC50>
7.77

$$$$
>  <Compound>
O=C(Nc1ccc2[nH]nc(-c3ccc(N4CCC(O)CC4)cc3)c2c1)C(c1cccs1)N1CCCC1 (stereo not shown)

>  <Value Relation Sign>
≥

>  <pIC50>
5.30

$$$$
>  <Compound>
COCc1cc(CN2CCN(C(=O)c3cccc(Cl)c3F)CC2)nc(Nc2nccs2)c1

>  <Value Relation Sign>
=

>  <pIC50>
6.60

$$$$
>  <Compound>
Fc1cnc2nc1NC1CCC(CC1)OC/C=C\COc1cccc(c1)N2

>  <Value Relation Sign>
<

>  <pIC50>
5.20

$$$$
>  <Compound>
COc1cc2c(Nc3cnn(CC(=O)Nc4ccccc4)c3)ccnc2cc1OCC[C@H](N)C(=O)O

>  <Value Relation Sign>
<

>  <pIC50>
5.30

$$$$
>  <Compound>
O=C(c1cccc(C(F)F)c1F)N1CCN(Cc2cccc(Nc3cc[nH]n3)n2)CC1

>  <Value Relation Sign>
=

>  <pIC50>
5.82

$$$$
>  <Compound>
Clc1ccc(-c2nnc(Nc3ccc(Oc4ncnn5cccc45)cc3)c3ccccc23)cc1

>  <Value Relation Sign>
>

>  <pIC50>
7.00

$$$$
>  <Compound>
COc1ccc2c(c1)[C@]1(C[C@H]1c1ccc3c(C#Cc4cccnc4)n[nH]c3c1)C(=O)N2 (relative stereo)

>  <Value Relation Sign>
>

>  <pIC50>
7.00

$$$$
>  <Compound>
COc1cccc([C@@H](CN2CCC2)Nc2ncnc3c(C(N)=O)cccc23)c1

>  <Value Relation Sign>
=

>  <pIC50>
7.17

$$$$
>  <Compound>
O=C(c1cccs1)N1CCN(Cc2cccc(Nc3ncc(Cl)s3)n2)CC1

>  <Value Relation Sign>
=

>  <pIC50>
6.60

$$$$

====

pIC50: −log10 of the molar value.
Here, molecules appear alongside pIC50 reported for Aurora kinase B (Homo sapiens) in the literature.

>  <Molecule>
O=C(Nc1ccc2[nH]nc(-c3ccc(CN4CCOCC4)cc3)c2c1)C(c1ccsc1)N1CCCC1 (stereo not shown)

>  <Value Relation Sign>
≥

>  <pIC50>
5.30

$$$$
>  <Molecule>
O=C(O)CCc1c(/C=C2\C(=O)Nc3ccc(S(=O)(=O)N4CCc5ccccc54)cc32)[nH]c2c1C(=O)CCC2

>  <Value Relation Sign>
=

>  <pIC50>
6.54

$$$$
>  <Molecule>
O=C1Nc2ncccc2/C1=C\c1ccc2c(/C=C/c3ccccn3)n[nH]c2c1

>  <Value Relation Sign>
>

>  <pIC50>
5.30

$$$$
>  <Molecule>
NC(=O)c1cccc2c(N[C@H](CN3CCC3)c3cccc(C(F)(F)F)c3)ncnc12

>  <Value Relation Sign>
=

>  <pIC50>
6.74

$$$$
